All values here come from the supplement of paper PMC7530171.

Tested on: THP-1
Assay Info: THP-1 cell loss relative to DMSO control; higher = more host cell loss (toxicity); extreme values may be limits of the assay
Reported Conditions: 10 µM; 4 days; infection: M. tuberculosis H37Rv
Decision: THP-1 cell loss >= 40% yields Yes, all other cases yield No.

Compound: COc1cc(/C=C(\C#N)C(N)=O)cc(CSc2nc3ccccc3s2)c1O
Label: No
--
Compound: O=C(Nc1cccc(Nc2ncc(Br)c(NCCc3cnc[nH]3)n2)c1)N1CCCC1
Label: No
--
Compound: COc1cc(Nc2c(C#N)cnc3cc(OCCCN4CCN(C)CC4)c(OC)cc23)c(Cl)cc1Cl [Bosutinib]
Label: Yes
--
Compound: NC(=O)c1ccc2[nH]ccc2c1
Label: Yes
--
Compound: CNC(=O)c1cc(Oc2ccc(NC(=O)Nc3ccc(Cl)c(C(F)(F)F)c3)c(F)c2)ccn1
Label: Yes
